- TARGET OR SYSTEM: T1, hMSLN-His-Avi (human, UniProt Q13421 296-598, single biotin on the Avi tag in the biotinylated form)
- T1 construct: Monomeric; also called human MSLN-His-Avi; hMSLN-Avi-His
- T1 sequence (Q13421 other isoform, or with tags, fused parts or gaps): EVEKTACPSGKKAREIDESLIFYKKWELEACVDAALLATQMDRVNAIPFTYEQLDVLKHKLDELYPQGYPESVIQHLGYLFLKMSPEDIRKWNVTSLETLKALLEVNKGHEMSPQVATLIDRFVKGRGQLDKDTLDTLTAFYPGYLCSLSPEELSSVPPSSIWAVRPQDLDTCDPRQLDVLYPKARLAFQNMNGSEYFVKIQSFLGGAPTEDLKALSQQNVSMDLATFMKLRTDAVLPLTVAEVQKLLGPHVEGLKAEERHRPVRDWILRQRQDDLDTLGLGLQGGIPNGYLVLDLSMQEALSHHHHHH
- TEST: SPR, hMSLN-His-Avi immobilised
pKd: −log10 of the molar value.

[
  {
    "BINDER": "FS28-256-274 (in CD137 mAb^2 format) (bispecific antibody, V domains shown, Position 55 is IMGT numbering) VH: EVQLLESGGGLVQPGGSLRLSCAASGFTFTHTYMSWVRQAPGKGLEWVSTISPTYSTTNYADSVKGRFTISRDNNKNTLYLQMNSLRAEDTAVYYCARYNAYHAALDYWGQGTLVTVSS VL: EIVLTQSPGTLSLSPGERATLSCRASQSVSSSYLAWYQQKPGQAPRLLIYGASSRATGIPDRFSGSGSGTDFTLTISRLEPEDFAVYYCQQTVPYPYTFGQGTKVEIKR",
    "pKd": 7.70
  },
  {
    "BINDER": "FS22-172-003-AA/FS28-256-273 (bispecific antibody, human IgG1, kappa, L234A L235A, V domains shown, IgG1 mAb^2 with LALA) VH: EVQLLESGGGLVQPGGSLRLSCAASGFTFTHTYMSWVRQAPGKGLEWVSSISPTYSTTNYADSVKGRFTISRDNNKNTLYLQMNSLRAEDTAVYYCARYNAYHAALDYWGQGTLVTVSS VL: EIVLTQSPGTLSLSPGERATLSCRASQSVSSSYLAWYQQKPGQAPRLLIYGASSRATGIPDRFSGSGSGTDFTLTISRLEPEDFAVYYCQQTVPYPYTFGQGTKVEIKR",
    "pKd": 8.22
  },
  {
    "BINDER": "FS22-172-003-AA/FS28-256-271 (bispecific antibody, human IgG1, kappa, L234A L235A, V domains shown, IgG1 mAb^2 with LALA; also called anti-human CD137/MSLN mAb^2) VH: EVQLLESGGGLVQPGGSLRLSCAASGFTFTHTYMSWVRQAPGKGLEWVSAISPTYSTTNYADSVKGRFTISRDNNKNTLYLQMNSLRAEDTAVYYCARYNAYHAALDYWGQGTLVTVSS VL: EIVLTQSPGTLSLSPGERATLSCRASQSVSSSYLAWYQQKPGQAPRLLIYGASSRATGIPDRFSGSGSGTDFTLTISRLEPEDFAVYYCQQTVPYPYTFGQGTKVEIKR",
    "pKd": 8.23
  },
  {
    "BINDER": "FS22-172-003-AA/FS28-256-272 (bispecific antibody, human IgG1, kappa, L234A L235A, V domains shown, IgG1 mAb^2 with LALA) VH: EVQLLESGGGLVQPGGSLRLSCAASGFTFTHTYMSWVRQAPGKGLEWVSHISPTYSTTNYADSVKGRFTISRDNNKNTLYLQMNSLRAEDTAVYYCARYNAYHAALDYWGQGTLVTVSS VL: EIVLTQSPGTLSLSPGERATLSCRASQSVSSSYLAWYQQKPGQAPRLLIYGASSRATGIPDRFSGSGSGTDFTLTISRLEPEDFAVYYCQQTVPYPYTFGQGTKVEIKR",
    "pKd": 7.97
  }
]
